# STUDY_SYSTEM: T1, human CD22, endogenous on Raji cells (human, UniProt P20273 20-847)
# T1 construct: whole, on cells; Endogenous protein of the Raji cell line
# T1 sequence (looked up): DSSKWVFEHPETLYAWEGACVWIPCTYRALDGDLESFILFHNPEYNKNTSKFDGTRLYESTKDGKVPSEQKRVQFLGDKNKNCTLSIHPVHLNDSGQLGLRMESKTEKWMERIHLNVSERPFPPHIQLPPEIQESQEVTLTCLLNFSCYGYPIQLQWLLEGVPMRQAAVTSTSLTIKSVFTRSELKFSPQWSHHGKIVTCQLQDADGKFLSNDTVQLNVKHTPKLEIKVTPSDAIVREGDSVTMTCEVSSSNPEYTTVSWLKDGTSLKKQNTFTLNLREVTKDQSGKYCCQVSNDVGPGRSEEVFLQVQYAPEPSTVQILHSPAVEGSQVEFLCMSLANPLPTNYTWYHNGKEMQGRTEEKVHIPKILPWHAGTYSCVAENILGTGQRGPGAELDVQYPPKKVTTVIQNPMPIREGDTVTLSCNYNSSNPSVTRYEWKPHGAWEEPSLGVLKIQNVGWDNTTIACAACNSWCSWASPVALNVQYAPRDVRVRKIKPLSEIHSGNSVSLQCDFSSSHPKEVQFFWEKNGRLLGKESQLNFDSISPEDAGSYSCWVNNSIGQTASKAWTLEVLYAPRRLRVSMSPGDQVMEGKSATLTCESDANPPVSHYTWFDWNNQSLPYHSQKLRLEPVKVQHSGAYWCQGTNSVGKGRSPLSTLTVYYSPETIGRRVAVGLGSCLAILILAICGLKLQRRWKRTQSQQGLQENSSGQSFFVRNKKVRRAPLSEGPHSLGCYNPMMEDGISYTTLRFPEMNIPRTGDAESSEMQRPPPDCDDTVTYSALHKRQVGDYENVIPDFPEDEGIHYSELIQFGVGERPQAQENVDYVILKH
# TEST_METHOD_NOTES: FACS, Raji cells
For each of the binders below, state its Maximum mean fluorescence intensity.

q: Answer with the recorded Maximum mean fluorescence intensity for the binder listed here: F1.161.7 human-murine chimeric antibody (antibody, human IgG1, kappa, V domains shown, Chimeric, human IgG1 / kappa) VH: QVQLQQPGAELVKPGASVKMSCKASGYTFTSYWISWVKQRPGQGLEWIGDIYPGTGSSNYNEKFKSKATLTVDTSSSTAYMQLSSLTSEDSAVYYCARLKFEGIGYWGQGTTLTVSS VL: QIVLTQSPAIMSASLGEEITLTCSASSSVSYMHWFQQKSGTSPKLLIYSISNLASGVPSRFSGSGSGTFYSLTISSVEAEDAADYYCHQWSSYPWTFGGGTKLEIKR
a: 27900 MFI

q: Name the recorded Maximum mean fluorescence intensity of the item F1.200.11 human-murine chimeric antibody (antibody, human IgG1, kappa, V domains shown, Chimeric, human IgG1 / kappa) VH: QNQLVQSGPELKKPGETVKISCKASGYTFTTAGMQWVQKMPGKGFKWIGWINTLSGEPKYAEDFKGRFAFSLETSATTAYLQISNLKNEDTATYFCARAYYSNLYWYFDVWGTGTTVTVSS VL: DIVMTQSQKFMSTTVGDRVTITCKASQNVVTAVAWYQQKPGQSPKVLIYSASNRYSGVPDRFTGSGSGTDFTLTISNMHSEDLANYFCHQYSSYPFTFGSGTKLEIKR in your answer.
a: 20800 MFI

q: Return the recorded Maximum mean fluorescence intensity value; entry: F1.257.3 human-murine chimeric antibody (antibody, human IgG1, kappa, V domains shown, Chimeric, human IgG1 / kappa; VL tied by name) VH: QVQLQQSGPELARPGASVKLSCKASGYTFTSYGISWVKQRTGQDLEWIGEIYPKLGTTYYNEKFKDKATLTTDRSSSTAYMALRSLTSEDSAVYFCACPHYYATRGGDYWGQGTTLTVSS VL: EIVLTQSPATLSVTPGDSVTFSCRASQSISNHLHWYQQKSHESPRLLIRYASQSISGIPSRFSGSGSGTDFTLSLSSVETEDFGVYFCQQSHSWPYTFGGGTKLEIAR
a: 29300 MFI
